assay_target: human PD-1 / PD-L1-Ig binding on Jurkat cell line over-expressing human PD-1 (Jurkat-PD-1) (Homo sapiens, UniProt Q15116)
Construct: expressed in transfected cells; host or cells: Jurkat
Sequence (Q15116 25-288): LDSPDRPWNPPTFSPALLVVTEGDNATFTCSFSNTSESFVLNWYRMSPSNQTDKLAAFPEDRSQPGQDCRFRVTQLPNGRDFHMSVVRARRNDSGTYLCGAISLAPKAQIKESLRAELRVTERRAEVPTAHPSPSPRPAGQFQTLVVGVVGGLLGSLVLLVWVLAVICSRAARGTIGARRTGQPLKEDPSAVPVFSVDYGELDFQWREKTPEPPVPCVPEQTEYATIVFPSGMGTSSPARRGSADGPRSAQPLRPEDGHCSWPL
experiment_summary: Jurkat-PD-1 Cell Binding High-Content Screening Assay (CBA)
Assay type: cell-based
conditions_used: Jurkat-PD-1 cells, PE-labeled PD-L1-Ig 20 nM final; read-out: Jurkat HPD1_PDL1 IC50
value_kind: pIC50
Bear in mind: pIC50 is minus log10 of a mol/L concentration; give just that figure.

Answered cases to consult:
CCC(C)[C@@H]1NC(=O)[C@H](Cc2ccc(-c3ccccc3)cc2)NC(=O)[C@H](C(C)C)NC(=O)[C@H](Cc2cc(OC)c(F)cc2F)NC(=O)[C@H](CC(=O)O)NC(=O)[C@H](Cc2ccc(OCC(=O)O)cc2)NC(=O)[C@H](CN)NC(=O)CSC[C@@H](C(=O)N[C@@H](C)C(N)=O)NC(=O)[C@H]([C@@H](C)O)NC(=O)[C@H](C(C)C)NC(=O)[C@H](CC2CCCCC2)NC(=O)[C@H](CCN)NC(=O)[C@@H](CC(C)C)NC(=O)[C@H](CCCN)NC1=O (some centres unmarked)	7.88
Cc1cccc(C[C@@H]2NC(=O)[C@H](CC(=O)O)NC(=O)[C@H](Cc3ccc(C(=O)O)cc3)NC(=O)[C@H](Cc3ccc(OCC(=O)O)cc3)NC(=O)CSC[C@@H](C(=O)N[C@@H](C)C(N)=O)NC(=O)[C@H]([C@@H](C)O)NC(=O)[C@H](C(C)C)NC(=O)[C@H](CC3CCCCC3)NC(=O)[C@H](CCN)NC(=O)[C@@H](CC(C)C)NC(=O)[C@H](CCCN)NC(=O)[C@H](CCCN)NC(=O)[C@H](Cc3ccc(-c4ccccc4)cc3)NC(=O)[C@H](C(C)C)NC2=O)c1	8.00
Cc1cccc(C[C@@H]2NC(=O)[C@H](CC(=O)O)NC(=O)[C@H](Cc3ccc(OCC(=O)O)cc3)NC(=O)[C@H](CN)NC(=O)CSC[C@@H](C(=O)N[C@@H](C)C(=O)NCc3cnc(C)cn3)NC(=O)[C@H]([C@@H](C)O)NC(=O)[C@H](C(C)C)NC(=O)[C@H](CC3CCCCC3)NC(=O)[C@H](CCN)NC(=O)[C@@H](CC(C)C)NC(=O)[C@H](CCCN)NC(=O)[C@H](CCCNC(N)=O)NC(=O)[C@H](Cc3ccc(-c4ccccc4)cc3)NC(=O)[C@H](C(C)C)NC2=O)c1	7.83

Quick one: pIC50 for CCC[C@@H]1NC(=O)[C@H](Cc2ccc(-c3ccccc3)cc2)NC(=O)[C@H](C(C)C)NC(=O)[C@H](Cc2cccc(C)c2)NC(=O)[C@H](CC(=O)O)NC(=O)[C@H](Cc2ccc(C(=O)O)cc2)NC(=O)[C@H](Cc2ccncc2)NC(=O)CSC[C@@H](C(=O)N[C@@H](C)C(N)=O)NC(=O)[C@H]([C@@H](C)O)NC(=O)[C@H](C(C)C)NC(=O)[C@H](CC2CCCCC2)NC(=O)[C@H](CCN)NC(=O)[C@@H](CC(C)C)NC(=O)[C@H](CCCN)NC1=O ?
7.80

Quick one: pIC50 for CCCC[C@@H]1NC(=O)[C@H](Cc2ccc(-c3ccccc3)cc2)NC(=O)[C@H](C(C)C)NC(=O)[C@H](Cc2c[nH]c3ccccc23)NC(=O)[C@H](CC(=O)O)NC(=O)[C@H](Cc2ccc(C(=O)O)cc2)NC(=O)[C@H](Cc2ccncc2)NC(=O)CSC[C@@H](C(=O)N[C@@H](C)C(N)=O)NC(=O)[C@H]([C@@H](C)O)NC(=O)[C@H](C(C)C)NC(=O)[C@H](CC2CCCCC2)NC(=O)[C@H](Cc2cnc[nH]2)NC(=O)[C@@H](CC(C)C)NC(=O)[C@H](CCCN)NC1=O ?
7.44
